Where do the numbers come from? From PubChem BioAssay (NCI).

Tested on: COLO 205 colon
ASSAY SUMMARY: NCI tumour cell line growth inhibition, 48 h
Parameter: TGI. Scope: all listed entries.
I only need the number, in µM, no unit after it.

Please review the following examples before continuing.
Per the records, this compound ( `O=C1C(c2c(O)[nH]c3ccc(Br)cc23)=Nc2ccccc21` ) has TGI equal to 31.4

Per the records, this compound ( `N#Cc1ccc(-n2c3ccccc3c3ccc4c(c32)C(=O)C=CC4=O)cc1` ) has TGI equal to 10.5

Per the records, this compound ( `Cc1ccc(O)c(NC(=O)c2ccc(CNc3ccnc(C(F)(F)F)c3)cc2)c1` ) has TGI equal to 20.1

Read the next record carefully.
Per the records, this compound ( `CCCSS[C@H]1NC(=O)[C@H]1NC(=O)COc1ccccc1` ) has TGI equal to 25

----------
System: COLO 205 colon
ASSAY SUMMARY: NCI tumour cell line growth inhibition, 48 h
MEASURED PARAMETER: GI50

Please review the following examples before continuing.
Per the records, this compound ( `O=C(/C=C/c1ccc(C(F)(F)F)cc1)c1ccc(Nc2nc(NCCO)nc(Nc3ccc(Cl)cc3)n2)cc1` ) has GI50 equal to 4800 nM

Per the records, this compound ( `CCN1CCN(CC(=O)N2c3cccc4cccc(c34)N(C(=O)CN3CCN(CC)CC3)C2c2cn(-c3ccccc3)nc2-c2cccc([N+](=O)[O-])c2)CC1` ) has GI50 equal to 1720 nM

Per the records, this compound ( `N#C/C(=C\c1ccc(Br)cc1)n1nnc2ccc(F)cc21` ) has GI50 equal to 1540 nM

Per the records, this compound ( `C#CCOc1cccc(Nc2ncnc3cc(NC(=O)CCl)ccc23)c1` ) has GI50 equal to 5040 nM

Per the records, this compound ( `CCCCCCCc1cc2c3c(nc4ccccc42)C(=O)c2cccnc2-c3n1` ) has GI50 equal to 5050 nM

Continuing:
Per the records, this compound ( `C[N+]1=C(/C=C\C=C\c2ccccc2)C(C)(C)c2ccccc21` ) has GI50 equal to 686 nM

Per the records, this compound ( `CCN(CC)c1ccc(C(=O)c2ccc(N(CC)CC)cc2)cc1` ) has GI50 equal to 515 nM

----------
Parameter: TGI. Scope: all listed entries.
System: SK-MEL-5 melanoma
ASSAY SUMMARY: NCI tumour cell line growth inhibition, 48 h

Per the records, this compound ( `Cc1cc(C)cc(NC(N)=S)c1` ) has TGI equal to > 100 µM

Per the records, this compound ( `COC(=O)CC[C@H](Cc1ccccc1)NC(=O)c1csc([C@@H](C[C@H](C(C)C)N(C)C(=O)[C@@H](NC(=O)[C@H]2CCCCN2C)C(C)C)OC(C)=O)n1` ) has TGI equal to 0.0984 µM

Per the records, this compound ( `CC(C)(C)c1cc(O)ccc1O` ) has TGI equal to > 100 µM

Per the records, this compound ( COc1ccc(C2ON(c3cccc(C)n3)CC=C2C)cc1 (stereo not given) ) has TGI equal to 33.3 µM

Read the next record carefully.
Per the records, this compound ( `O=C1c2ccccc2S(=O)(=O)c2cc(-c3nn[nH]n3)ccc21` ) has TGI equal to > 100 µM

----------
Test system: PC-3 prostate
ASSAY SUMMARY: NCI tumour cell line growth inhibition, 48 h
MEASURED PARAMETER: TGI

Please review the following examples before continuing.
Reported TGI (PC-3 prostate) for entry `O=C(NNC(=S)NC1CCCCC1)c1csc(NC(=S)NC2CCCCC2)n1` is 24.9 µM

Reported TGI (PC-3 prostate) for entry `CN(C)CCNC(=O)c1ccc(NC(=O)c2nc([N+](=O)[O-])cn2C)cc1` is > 100 µM

Reported TGI (PC-3 prostate) for entry O=C(O)CN1C(=O)C(Cc2ccc(O)cc2)N=C(c2cccc(O)c2)c2ccccc21 (configuration not stated) is > 100 µM

Reported TGI (PC-3 prostate) for entry `CN(Cc1cc(C(C)(C)C)cc(Br)c1O)Cc1cc(C(C)(C)C)cc(Br)c1O` is 9.32 µM

Reported TGI (PC-3 prostate) for entry `COCN1C(=O)[C@@H]2CCCN2C(=O)c2cc(N)ccc21` is > 100 µM

Reported TGI (PC-3 prostate) for entry `O=C(OC[C@H]1O[C@H](OC(=O)c2cc(O)c(O)c(OC(=O)c3cc(O)c(O)c(O)c3)c2)[C@H](OC(=O)c2cc(O)c(O)c(OC(=O)c3cc(O)c(O)c(O)c3)c2)[C@@H](OC(=O)c2cc(O)c(O)c(OC(=O)c3cc(O)c(O)c(O)c3)c2)[C@@H]1OC(=O)c1cc(O)c(O)c(OC(=O)c2cc(O)c(O)c(O)c2)c1)c1cc(O)c(O)c(OC(=O)c2cc(O)c(O)c(O)c2)c1` is > 25 µM

Reported TGI (PC-3 prostate) for entry `CO/N=C(\C)CCC#Cc1ccccc1C(=O)OC` is > 10 µM

Reported TGI (PC-3 prostate) for entry `CCOC(=O)c1ccc(N=c2sc3ccccc3nc2Nc2ccc(C(=O)OCC)cc2)cc1` is > 100 µM

Continuing:
Reported TGI (PC-3 prostate) for entry COC(=O)C1(C)C=CC(=O)C2(C)C1C(O)C1OC3CC(c4ccoc4)C(C)=C3C1(C)C2CC(=O)O (configuration not stated) is > 100 µM

Reported TGI (PC-3 prostate) for entry CCOc1ccc2nc(NC(=O)C(=O)C(c3cnc4ccccc4n3)[N+](=O)[O-])sc2c1 (configuration not stated) is > 100 µM

----------
Tested on: OVCAR-3 ovarian
ASSAY SUMMARY: NCI tumour cell line growth inhibition, 48 h; in the data active = GI50 below about 0.43 µM; inactive = the rest
Return exactly one item of t for active, f for inactive

Please review the entries below; each comes with its answer.
Give the logged outcome of this assay for the following molecule: CC(C)=CC1=C2C3=C(C(=O)C4(O)Oc5c(C)c6c7c(c5OC24C)[C@@H](C)CC[C@@H]7[C@@H](C)C[C@H]6C=C(C)C)C(C)CCC3C(C)C1 (some centres not stated)
f

Give the logged outcome of this assay for the following molecule: `Cc1cnc(C(=O)Nc2nc3ccc(S(=O)(=O)Nc4ccc(C5(C(F)(F)F)CC5)cc4)cc3[nH]2)cn1`
t

Continuing:
Give the logged outcome of this assay for the following molecule: `Cc1cc(N2CCOCC2)cc2[nH]c(-c3c(NC[C@@H](O)c4cccc(Cl)c4)cc[nH]c3=O)nc12`
f

Give the logged outcome of this assay for the following molecule: `O=C1C(=O)c2cccnc2-c2ncccc21`
t

----------
System: RXF 393 renal
ASSAY SUMMARY: NCI tumour cell line growth inhibition, 48 h
MEASURED PARAMETER: TGI (µM)
I only need the number, in µM, no unit after it.

Per the records, this molecule ( CCCCCCCCCCNC(=O)CCC(NC(=O)c1ccc(N(C)Cc2cnc3nc(N)nc(N)c3n2)cc1)C(=O)NCCCCCCCCCC (stereo not given) ) has TGI equal to 19.3

Per the records, this molecule ( `Cn1cc(-c2ccc(-c3ccc(C4=NC5(CC5)C(=O)N4C[C@@H]4CCN(C(=O)C5CC5)C4)cc3)cc2)cn1` ) has TGI equal to 33.3

Per the records, this molecule ( `CCN(CC)c1ccc(N=Nc2ccc(-c3nc4ccc[n+](C)c4o3)cc2)cc1` ) has TGI equal to 22.6

Per the records, this molecule ( CC(C)(C)OC(=O)N1C(c2cccnc2)=CC[C@H]2C3CC=C(c4cccnc4)[C@@]3(C)CC[C@@H]21 (stereo not given in full) ) has TGI equal to 14.6

Per the records, this molecule ( `C/C(=N\NC(=S)NCCCNC(=S)N/N=C(\C)c1ccccn1)c1ccccn1` ) has TGI equal to 14.7

Per the records, this molecule ( `CN(C)c1nc(Cl)c2c(-c3ccccc3)c(-c3ccccc3)oc2n1` ) has TGI equal to 45.2

Continuing:
Per the records, this molecule ( C=C1CC2(OC1=O)C(=O)Nc1ccccc12 (stereo not given) ) has TGI equal to 2.9

----------
Tested on: SK-MEL-2 melanoma
ASSAY SUMMARY: NCI tumour cell line growth inhibition, 48 h
MEASURED PARAMETER: TGI

Please review the following examples before continuing.
Reported TGI (SK-MEL-2 melanoma) for entry `N#Cc1c(N)nc(Sc2ccccc2N)c(C#N)c1-c1ccc(Cl)cc1` is 18.2 µM

Reported TGI (SK-MEL-2 melanoma) for entry CCOc1ccc2nc(NC(=O)C(=O)C(c3cnc4ccccc4n3)[N+](=O)[O-])sc2c1 (centres undefined) is > 100 µM

Reported TGI (SK-MEL-2 melanoma) for entry `O=C(c1ccccc1)c1cn(/N=C\c2ccccc2)c(=O)nc1-c1ccccc1` is > 100 µM

Reported TGI (SK-MEL-2 melanoma) for entry Cc1cc2c([nH]c3ccccc32)c2c1OC(C)(C)C1C3CC(C)(C)Oc4c(C)cc5c6ccccc6n(c5c43)C21 (centres undefined) is > 100 µM

Reported TGI (SK-MEL-2 melanoma) for entry O=C1CSC(c2cccc([N+](=O)[O-])c2)N1c1ccc(-n2c(-c3ccccc3)nc3ccccc3c2=O)cc1 (centres undefined) is > 100 µM

Continuing:
Reported TGI (SK-MEL-2 melanoma) for entry `O=C1c2ccccc2S(=O)(=O)c2cc(-c3nn[nH]n3)ccc21` is > 100 µM

Reported TGI (SK-MEL-2 melanoma) for entry `CO/N=C(\C)c1cccc(Nc2c3ccccc3nc3occc23)c1` is 15.5 µM

Reported TGI (SK-MEL-2 melanoma) for entry Cn1cc2ccccc2c1-c1nc(F)nc(OCC(=O)[C@H]2CCC3[C@@H]4CCC5=CC(=O)CC[C@]5(C)C4[C@@H](O)C[C@@]32C)n1 (some centres undefined) is 31.3 µM

Reported TGI (SK-MEL-2 melanoma) for entry COc1ccc(C2ON(c3cccc(C)n3)CC=C2C)cc1 (centres undefined) is 69.4 µM

Reported TGI (SK-MEL-2 melanoma) for entry CCOC(=O)C(SCCO)C(C(=O)OCC)n1ccc(=O)[nH]c1=O (centres undefined) is > 79.8 µM
